# method_summary: compound binding in COS7 lysate, probe aLAP1, primary screen, cell lysate, small-molecule microarray (AID 1124);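 note: lysate comes from COS7 cells expressing LAP1 and is applied at 0.3 µg/mL; score merges spot fluorescence near 667 nm with signal-to-noise over triplicate slides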
# experimental_parameters: probe aLAP1, fluorescence, higher = more signal
measured_attribute: composite z-score

compound: CON=Cc1ccc(C(=O)N2[C@H](c3ccc(C)cc3)[C@@H](C)CC[C@H]2C(=O)OC)cc1
meas_value: 0.251
//
compound: CO[C@@H]1COC(=O)CC=C[C@@H](C)[C@@H]2C=C[C@H](O)[C@@H](COC(=O)CC=C[C@H]1C)O2
meas_value: 0.146
//
compound: CCO[C@H](c1cc(OC)cc([N+](=O)[O-])c1OC)[C@H](C)C=CCC(=O)OC
meas_value: 0.251
//
compound: CC=CC1=C(CO)C(=O)[C@@H]2O[C@@H]2C1=O
meas_value: -0.724
//
compound: COC(=O)[C@H](C)NC(=O)CCC1CC(OC(=O)NCc2cccc3ccccc23)CC2(CCCC(COC(=O)NCC(c3ccccc3)c3ccccc3)O2)O1 (stereo partly drawn)
meas_value: 0.433
//
compound: CC(CCN1CCCCc2nc(C)c(C)cc21)=NO[C@H](C)c1cn([C@H](CO)Cc2ccccc2)nn1
meas_value: -0.129
//
compound: CC(C)CCN1CCc2nc(COc3ccccc3)c3c(c2C1)CO[C@@H](C)C3
meas_value: 0.378
//
compound: CC(C)=CCCC(C)=CCON=C1C[C@@H](O)[C@@H](O)[C@@H]2[C@@H]3C(=O)N(c4ccc(F)cc4F)C(=O)[C@@H]3CC[C@@H]12
meas_value: 0.233

====

As shown below, each of these molecules has a reported composite z-score value.
# Test system: Human papillomavirus type 1a E7 protein (residues 1-88)
# method_summary: HPV1a E7 small-molecule binders, primary screen, biochemical, small-molecule microarray, residues 1-88, 635 nm (AID 1129)
# experimental_parameters: small-molecule microarray binding, fluorescence 635 nm; higher = more signal

molecule: CC(C)(C)N1C(=O)[C@H]2[C@H]3[C@H](O)[C@H](O)CC(=O)[C@@H]3CC[C@H]2C1=O
composite z-score: 0.237

molecule: CC(C)=CCCC(C)=CCON=C1C[C@@H](O)[C@@H](O)[C@@H]2[C@@H]3C(=O)N(c4ccc(F)cc4F)C(=O)[C@@H]3CC[C@@H]12
composite z-score: -0.167

molecule: CC(=O)OC[C@H]1O[C@H](C#Cc2ccccc2)C=C[C@@H]1OC(C)=O
composite z-score: 0.262

molecule: CCN1C(=O)[C@H]2[C@H]3[C@H](O)[C@H](O)CC(=NOC[C@H]4O[C@H](c5ccccc5)C=C[C@@H]4Oc4ccc(OC)cc4)[C@@H]3CC[C@H]2C1=O
composite z-score: 0.829

molecule: CCOC(=O)[C@H](CC(C)C)NC(=O)CCC1CC(OC(=O)NCc2cccc3ccccc23)CC2(CCCC(COC(=O)NCCOc3ccccc3)O2)O1 (some centres not stated)
composite z-score: 1.15

molecule: O=C1[C@H]2[C@H]3[C@H](O)[C@H](O)CC(=NOC[C@@H](O)COCc4ccco4)[C@H]3CC[C@H]2C(=O)N1Cc1ccccc1
composite z-score: -0.429

molecule: CC(C)=CCCC(C)=CCON=C1C[C@@H](O)[C@@H](O)[C@@H]2[C@@H]3C(=O)N(c4cccc(Oc5ccccc5)c4)C(=O)[C@@H]3CC[C@@H]12
composite z-score: 0.929
